Below, each entry is listed alongside its reported TGI.
Test system: SF-539 CNS
Assay: NCI tumour cell line growth inhibition, 48 h
Quick reminder: number only, in µM, skip the unit.

Reported TGI of OC(C1=C/C(=C\c2ccncc2)c2ccccc21)c1ccncc1 (stereo not given) : 32

Next up:
Reported TGI of `CCCc1ccc(S(=O)(=O)N[C@H]2CC[C@H]3[C@@H]4CCc5cc(O)ccc5[C@H]4CC[C@]23C)cc1` : 4.46

###

Test system: M14 melanoma
Assay: NCI tumour cell line growth inhibition, 48 h
Below, each entry is listed alongside its reported TGI.
Quick reminder: number only, in µM, skip the unit.

Reported TGI of `COc1cc(NC(=O)c2cc(OC)c3ccn(C)c3c2)cc2c1C[C@]1(C)CC[C@@H](O)C(C)(C)[C@H]1O2` : 14

***
Reported TGI of CC(=O)OC(CC(C)C)P1(=O)N(CC(C)(C)C)[C@@H]2CCCC[C@H]2N1CC(C)(C)C (some centres undefined) : 19.8

Reported TGI of `O=c1c(/C=C/c2c(O)ccc3ccccc23)nnc2sc(-c3cccc([N+](=O)[O-])c3)nn12` : 68.4

Reported TGI of CC(=O)Nc1ccc(N2C(=O)CS(=O)(=O)C2c2cccc(Oc3ccccc3)c2)cc1 (centres undefined) : 33.9

###

Below, each entry is listed alongside its reported TGI.
System: A498 renal
Test: NCI tumour cell line growth inhibition, 48 h
Quick reminder: number only, in µM, skip the unit.

For orientation, consider the following solved cases.
Reported TGI of `CC(=O)c1cc2c(s1)C(=O)c1scc(C(C)=O)c1C2=O` : 4

Reported TGI of COC(=O)C1=C(O)C(C(=O)OC)[C@]2(O)[C@H](C(=O)OC)[C@H]1C[C@@H](c1cccc(OC)c1)[C@H]2C(=O)OC (some centres undefined) : 55.9

Reported TGI of COc1ccc(C2=NN(C(=O)COc3ccc(Cl)cc3)C(O)(c3cc(F)c(Cl)cc3Cl)C2)cc1OC (centres undefined) : 26.2

Reported TGI of `O=C(Nc1ccc(-n2cc(-c3ccncc3)c(-c3ccc(Cl)c(O)c3)n2)cc1)Nc1cc(C(F)(F)F)cc(C(F)(F)F)c1` : 5.39

Reported TGI of `Cc1cccc(/C=N/NC(=S)N2CCCCCC2)n1` : 13.5

Reported TGI of `COc1cc(C(=O)O[C@H](C(=O)NCCNC(=O)[C@@H](OC(=O)c2cc(OC)cc3c(C)cccc23)[C@]2(C)CO2)[C@]2(C)CO2)c2cccc(C)c2c1` : 4.35

Reported TGI of CCN1C(=O)N(CC)C2C1NN=c1s/c(=C3\C(=O)N(CC(C)C)c4ccccc43)c(=O)n12 (centres undefined) : 0.875

Reported TGI of `Cc1cccc(C)c1NC(=O)/C(Cl)=C(/Cl)C(=O)O` : 60.6

***
Reported TGI of O=c1c2ncn(C3CCCCO3)c2n(-c2ccccc2)c(=S)n1-c1ccccc1 (centres undefined) : 89.6

###

Below, each entry is listed alongside its reported GI50.
Test system: KM12 colon
Assay: NCI tumour cell line growth inhibition, 48 h

Reported GI50 of `COC(=O)COc1ccc(/C=C2\N=C(c3ccccc3)N(c3cc(C(F)(F)F)ccc3Cl)C2=O)cc1` : 42.3 µM

Reported GI50 of `Cc1cc(C)c(O)c(CNCCCCCCNCc2cc(C)cc(C)c2O)c1` : 1.82 µM

***
Reported GI50 of `CCOC(=O)CCCn1c(SC)nc2cc(-c3ccco3)[nH]c2c1=O` : > 100 µM

Reported GI50 of CC(=O)C1CC2(c3ccc(C)cc3)C(c3ccc(C)cc3)=C(c3ccc(C)cc3)C1(c1ccc(C)cc1)S2=O (centres undefined) : > 100 µM

Reported GI50 of `CCC1=C[C@@H]2CN(C1)Cc1c([nH]c3ccccc13)[C@@](C(=O)OC)(c1cc3c(cc1OC)N(C=O)[C@H]1[C@@](O)(C(=O)OC)[C@H](OC(C)=O)[C@]4(CC)[C@@H]5C[C@@H]5CN5CC[C@]31[C@@H]54)C2` : < 0.000625 µM

Reported GI50 of `CC(=O)Nc1nc(SCc2ccccc2)c2ncn(C(C)=O)c2n1` : > 100 µM

Reported GI50 of N#CC1=C(N)NC(=S)NC12Nc1ccccc1O2 (centres undefined) : 27.1 µM

Reported GI50 of `N=C1c2nc3n(c2C(=O)c2nc4n(c21)CCCC4)CCCC3` : 16.6 µM

Reported GI50 of `COc1ccc2nc(-c3ccccc3)cc(Nc3ccc(C(C)=O)cc3)c2c1` : 1.88 µM

###

Below, each entry is listed alongside its reported TGI.
Test system: RPMI-8226 leukemia
Assay: NCI tumour cell line growth inhibition, 48 h

For orientation, consider the following solved cases.
Reported TGI of `CC1(C)NCCC[C@]2(C)[C@H]3C=CC4=C5C[C@](C)(CO)CC[C@]5(C)CC[C@@]4(C)[C@]3(C)CC[C@@H]12` : 14.9 µM

Reported TGI of C=C1C(=O)O[C@@H]2C1C[C@@H](O)/C(C)=C/C/C=C(\C)CCC[C@H](C)[C@H]2OC(C)=O (stereo not given in full) : 48.6 µM

Reported TGI of `CCOC(=O)CCCn1c(SC)nc2cc(-c3ccco3)[nH]c2c1=O` : > 100 µM

***
Reported TGI of CC(C)=CC(C)C(C(O)CCC1(c2ccoc2)OCCO1)S(=O)(=O)c1ccccc1 (stereo not given) : > 100 µM

Reported TGI of `CN(C)CCCN=C(N)N` : > 100 µM

###

Test system: KM12 colon
Assay: NCI tumour cell line growth inhibition, 48 h
Below, each entry is listed alongside its reported TGI.
Quick reminder: number only, in µM, skip the unit.

Reported TGI of CC(=O)OC(CC(C)C)P1(=O)N(CC(C)(C)C)[C@@H]2CCCC[C@H]2N1CC(C)(C)C (stereo not given in full) : 24.1

Reported TGI of COc1ccc(/C=C\c2cc(OC)c(OC)c(OC)c2)cc1OC(=O)C(N)CCC(=O)O (stereo not given) : 0.0073

Reported TGI of `C/C=C1/CN2[C@@H](C3=C[C@@H]4[C@@H]5N(C3=O)c3ccccc3[C@@]53CCN5C/C(=C/C)[C@@H]4C[C@H]53)C[C@@]34c5ccccc5N5C(=O)CC=C([C@H]1C[C@H]23)[C@H]54` : 17

Reported TGI of `COc1ccc(/C=C2\Sc3nnc(C)n3N=C2c2cc(F)c(Cl)cc2Cl)cc1OC` : 33.1

###

Below, each entry is listed alongside its reported TGI.
Test system: SNB-19 CNS
Assay: NCI tumour cell line growth inhibition, 48 h

Reported TGI of `COc1cc(CCNC2=CC(=O)c3cccnc3C2=O)ccc1O` : 4.04 µM

Reported TGI of `c1ccc2[nH]c(SSc3nc4ncncc4[nH]3)nc2c1` : > 100 µM

Reported TGI of `COc1ccc(/C=C2\Sc3nnc(C)n3N=C2c2cc(F)c(Cl)cc2Cl)cc1OC` : 11.8 µM

Reported TGI of `COC(=O)c1c(O)ccc2c1c1c(n2Cc2ccc(OC)cc2)C(=O)c2ccccc2C1=O` : > 100 µM

Reported TGI of `O=C(/C=C/C=C/c1ccccc1)CCc1ccccc1` : > 100 µM

###

System: K-562 leukemia
Test: NCI tumour cell line growth inhibition, 48 h
ENDPOINT_NAME: TGI

Reported TGI of `C=C1C[C@@H]2C/C=C/C(=O)C/C(C)=C\C=C\C(=O)O[C@H](C=O)C/C(C)=C/[C@H](C1)O2` : > 40.2 µM

Reported TGI of CCN(CC)c1ccc2c(c1)Oc1ccc(N(C(C)=O)c3ccccc3)cc1C21OC(=O)c2ccccc21 (stereo unspecified) : > 100 µM

Reported TGI of `CC(C)(C)C(=O)Nc1ccccc1I(=O)=O` : > 100 µM

Reported TGI of `C=C1CC[C@@]2(C#N)[C@H]3[C@H](CC[C@@H]2C)[C@@H](C)C[C@@H](CC(C)(C)C#N)[C@H]13` : > 100 µM

***
Reported TGI of `c1ccc2c(c1)CCN(C1=NCCO1)C2` : > 10 µM

Reported TGI of CN1[C@@H]2CCCC[C@H]2N(C)P1(=O)C(O)/C=C/c1ccccc1 (stereo partly specified) : > 100 µM

###

Test system: A498 renal
Experiment: NCI tumour cell line growth inhibition, 48 h
ENDPOINT_NAME: TGI

Reported TGI of `CC1(C)COCN1COC1CCCCC1` : > 100 µM

***
Reported TGI of N#Cc1ccccc1NC(=O)/C(=N\NC(=O)c1ccncc1)C(c1cnc2ccc([N+](=O)[O-])cc2n1)[N+](=O)[O-] (stereo unspecified) : > 100 µM

Reported TGI of CCOP(=O)(CC1CC(O)(CNc2cc(Cl)nc(N)n2)C1)OCC (stereo unspecified) : > 100 µM
